Source: PubChem BioAssay (EPA / NIEHS)

Read-out: Human Leukocyte Antigen - DR isotype (HLADR), HLA-DRA (gene 3122)
test summary: BSK_3C_HLADR: BioMAP Diversity Plus: 3C Assay for Human Leukocyte Antigen - DR isotype (HLADR) Biomarker Activity (AID 2283019)
reported conditions: primary human endothelial cells (HUVEC); actives raise or lower the signal
Activity calls are given as the source filed them. Rule for the calls: active = hit-call score of the fitted dose curve at least 0.9, where 1 is the maximum; inactive = score below 0.9.
Possible outcomes: y for active, n for inactive

molecule: CCN(CC)c1ccc2c(c1)Oc1cc(N(CC)CC)ccc1C21OC(=O)c2ccccc21
class assignment: y
//
molecule: Cc1cc(O)c(C(C)(C)C)cc1C(C)(C)C
class assignment: y
//
molecule: Cc1ccc(S(=O)(=O)C(I)I)cc1
class assignment: y
//
molecule: Brc1nc2ccccc2s1
class assignment: n
//
molecule: O=S(=O)(O)CCC(F)(F)C(F)(F)C(F)(F)C(F)(F)F
class assignment: n
//
molecule: NC(=O)C(F)(F)C(F)(F)C(F)(F)F
class assignment: n
//
molecule: O=C(O)CCC(F)(F)C(F)(F)C(F)(F)F
class assignment: n
//
molecule: OC(O)C(F)(F)C(F)(F)F
class assignment: n
//
molecule: O=C(O)C(F)(F)OC(F)(F)C(F)(F)OC(F)(F)C(F)(F)OC(F)(F)F
class assignment: n
//
molecule: Cc1cc(C)c(O)c(C(C)(C)C)c1
class assignment: y
//
molecule: CCN(CC)c1ccc(C=O)c(O)c1
class assignment: y
//
molecule: O=C(Cl)C(F)(F)C(F)(F)C(F)(F)C(F)(F)C(F)(F)C(F)(F)F
class assignment: n
//
molecule: O=C1c2c(O)ccc(Nc3ccc(CCO)cc3)c2C(=O)c2c([N+](=O)[O-])ccc(O)c21
class assignment: y
//
molecule: C=C(C)C(=O)OCC(F)(F)C(F)(F)C(F)(F)C(F)F
class assignment: n
//
molecule: C[C@]12CC[C@H]3C(=CCc4cc(O)ccc43)[C@@H]1CCC2=O
class assignment: y
//
molecule: CC(C)CCCC(C)CCO (centres undefined)
class assignment: y
//
molecule: FC(F)(F)C(F)(F)C(F)(F)C(F)(F)C(F)(F)C(F)(F)C(F)(F)CCI
class assignment: n
//
molecule: CO[Si](C)(CCC(F)(F)C(F)(F)C(F)(F)C(F)(F)C(F)(F)C(F)(F)F)OC
class assignment: n
//
molecule: NCC(F)(F)C(F)(F)C(F)(F)C(F)(F)C(F)(F)C(F)(F)F
class assignment: n
//
molecule: O=C(Cl)C(F)(F)C(F)(F)C(F)(F)C(F)(F)C(F)(F)C(F)(F)C(F)(F)F
class assignment: n
//
molecule: O=C(O)CCC(F)(F)C(F)(F)C(F)(F)C(F)(F)C(F)(F)C(F)(F)C(F)(F)F
class assignment: n
//
molecule: OCCCCC(F)(F)C(F)(F)C(F)(F)C(F)(F)F
class assignment: n
//
molecule: O=C(c1ccccc1)c1ccc(O)cc1O
class assignment: n
//
molecule: O=C(O)C(F)(F)C(F)(F)C(F)(F)OC(F)(F)F
class assignment: n
//
molecule: NCC(F)(F)C(F)(F)C(F)(F)C(F)(F)C(F)(F)C(F)(F)C(F)(F)C(F)(F)F
class assignment: n
//
molecule: O=C(F)C1(F)C(F)(F)C(F)(F)C(F)(F)C(F)(F)C1(F)F
class assignment: n
//
molecule: CCN(CC)c1ccc(C=O)cc1
class assignment: n
//
molecule: CCOC(=O)CC(=O)C(F)(F)C(F)(F)F
class assignment: n
//
molecule: CC1=CC2C3C=CC(C3)C2C1C (centres undefined)
class assignment: n
